# test_method_notes: yeast display, Sf9 membrane polyspecificity reagent, FACS + sequencing; frameworks hold sequencing errors
measurement_type: polyreactivity (PSR sort gate)

Would you please look over these solved cases?
chain: QVQLVESGGGLVQAGGSLRLSCAASGITIYYNAMGWYRQAPGKARELVAAITQSGGSTFYADSVKGRFTISRDNAKNTVYLQMNSLKPEDTAVYYWGQGTQVTVSS
polyreactivity (PSR sort gate): low polyreactivity
//
chain: QVQLVESGGGLVQAGGSLRLSCAASGITLSYNDRGWYRQAHGKEREFVAAITGGGSTYYADSVKGRFTISRDNAKNTVYLQMNSLKPEDTEVYYCAAERWYAWTVLYTVSYGYWGQGTQVTVSS
polyreactivity (PSR sort gate): high polyreactivity
//
chain: QVQLVESGGGLVQAGGSLRLSCAASGRTFSVYAMGWYRQAPGKERELVAAIRTSGGITYYADSVKGRFTISRDNAKNTVYLQMNSLKPEDTAVYYCAAETFRPYSYTRYYYWGQGSQVTVSS
polyreactivity (PSR sort gate): high polyreactivity
//
chain: QVQLEESGGGLVQAGGSLRLSCAASGFTFYLYAMGWYRQAPGKERELVASISSGGRTYYADSVKGRFTISRDNAKNTVYLQMNSLKPEDTAVYYCAVSPYSRRKYEYYYWGQGTQVTVSS
polyreactivity (PSR sort gate): high polyreactivity

Ask: Tell us which polyreactivity (PSR sort gate) value is on record for QVQLVETGGGLVQAGGRLRLSCAASGSIFPDYDMGWYRQAPGKQRELVAAISSSGDSTYYADSVKGRFTISRDNAKNTVYLLMNSLKPEDTAVYYCAVDGTRSTSNGSEFTGYNYWGQGTQVTVSS
Result: low polyreactivity

Ask: Tell us which polyreactivity (PSR sort gate) value is on record for QVQLVESGGGLVQAGGSLRLSCAASGFTFARNAMGWYRPAPGKERELVAGITSRGSSTSYADSVKGRFTISRDNAKNTVYLQMNSLKPEDTAVYYSAADRYSAYLYWDEYWGQGTQVTVSS
Result: high polyreactivity

Ask: Tell us which polyreactivity (PSR sort gate) value is on record for QVQLVESGGGFVQAGGSLRLSCAASGFTFRKYARGWYRQAPGNERELVAVINIVGSTYYADSVKGRFTISRDNAKNTVYLQMNSLKPEDTAVYYCAADWSYRLKYYWYGGFNYWGQGTQVTVSS
Result: high polyreactivity

Ask: Tell us which polyreactivity (PSR sort gate) value is on record for QVQLVESGGGLGQAGGSLRLSCAASGRIFGGYTMGWYRQAPGKEREFVDTISRSSGSTYYADSVKGRFTISRDHAKNTVYLQMNSLKPEDTAVYYCAAVYLYATGYDYWGQCTQVTVSS
Result: high polyreactivity

Ask: Tell us which polyreactivity (PSR sort gate) value is on record for QGQLVESGGGLVQAGGSLRLSCAASGRTVGEYTMGWSRPAPGKERELVAAISSAGRTNYADSVKGRFTISRDNAKNTVYLQMHRLKPEDTAVYYCAADWTDDVPGYDYWGQGTKVTVSS
Result: low polyreactivity

Ask: Tell us which polyreactivity (PSR sort gate) value is on record for QVQLVESGGGLVQAGGSLRLSCAASGITFYDYAMGWYRQAPGKERELVAAISFSGSRTYYADSVKGRFTISRDNAKNTVYLQMNSLKPEDTAVYYCAASPSTPNKYGSWGQGTQVTVSS
Result: high polyreactivity

Ask: Tell us which polyreactivity (PSR sort gate) value is on record for QVQLVESGVGLDQAGGSLRLSCAASGSIFIINAMGLYRQAPGKERELVARISNGGNTYADSVKGRFTISRDNAKNTVYLQMKSLKPEDTAVYYCAARAYARRPKYVPKFDYWGQGTQVTVSS
Result: high polyreactivity
